# Tested on: T1, MCL-1 (UniProt Q07820 172-327, limits assumed)
# T1 construct: Target of the Ki columns; also called Myeloid cell leukemia 1
# T1 sequence (Q07820 172-327 limits assumed): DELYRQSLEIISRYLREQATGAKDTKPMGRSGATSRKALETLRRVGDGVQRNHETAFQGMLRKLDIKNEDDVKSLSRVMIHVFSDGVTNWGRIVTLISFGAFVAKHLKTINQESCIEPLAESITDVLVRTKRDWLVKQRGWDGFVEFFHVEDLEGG
# Method notes: Ki (Table 8); method not stated
Measure: Ki

Prompt: Please give the documented Ki of IWIAQALRALGDAFNAYFA (not fully specified; N-terminal Ac; $r8 at residue 9 (column 154) and $ at residue 16 (column 161), crosslinked; hL at residue 10 (column 155); F4F at residue 18 (column 163); C-terminal NH2) [Cross-linked peptide #16]
Response: 27 nM
